# Test system: LXRa:RXRa (NR concentration 270 nM, RXRa partner concentration 90 nM)
# PROTOCOL_TEXT: PBM binding z-score (relative to random genomic background probes); higher = stronger binding; sequences stand for … in GC…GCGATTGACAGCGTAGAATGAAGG
EXPERIMENTAL_ENDPOINT: PBM binding z-score

Record excerpt, results attached:
SEQUENCE_CODE	REPORTED_MEASUREMENT
AGAACGAGGGCCATGAGTTGATAGCACGGGTGGC	-0.437
CGTCCAAGGTCAATGGTCAGTGAAGAGATGACGG	4.43
GCAGACAGGTGAAACGCAGGTAACGCAGGGTGGC	-0.229
TCGAGCAGGCCAGAGGGTCACTCAAGAGGTACGG	0.741
CCGACTGGGGCATAAGCTTACCATAAGCCAGCCC	-0.689
CCTACTGGGCCAAAGGTCACTGATTCCAATGCTC	4.62
ATCGAAAGGTCGAAGGTGAGTATGCCCACCCGAA	3.31
TCTGCTAGGTCAGTTGGTCAGCTACCGAGCTGCC	0.506

Let us move to another entry and its PBM binding z-score.
Tell me measured PBM binding z-score for "TGAATAAGGTTAAAGATCAGGGAACGTGGCGTCG" please.
2.57

---

# Tested on: VDR homodimer (NR concentration 270 nM)
# PROTOCOL_TEXT: PBM binding z-score (relative to random genomic background probes); higher = stronger binding; sequences stand for … in GC…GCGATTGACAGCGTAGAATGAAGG
The sequences listed here are annotated with their PBM binding z-score.
# respond with the number and nothing more

SEQUENCE_CODE	TEST_TARGET	PBM binding z-score
CCTACTGGGCCATCAGGTCATGGATATCAACGTT	VDR homodimer (NR concentration 270 nM)	0.959
GGAAGGAGGGCAAAGTTGATAGCATCTGTCGACG	VDR homodimer (NR concentration 270 nM)	1.44

Shifting focus to the sequence that follows.
// fetch PBM binding z-score given entry "GCTGCTAGGTCAACTGCTGGTCAGCTAAAGCTCG"
-0.195

---

Each entry below lists one item and its recorded PBM binding z-score value.
# Tested on: PPARg DBDmut IVT, anti-PPARg (DBD mutation: PPARg1 K132A/R137A, NR concentration 270 nM)
# PROTOCOL_TEXT: PBM binding z-score (relative to random genomic background probes); higher = stronger binding; sequences stand for … in GC…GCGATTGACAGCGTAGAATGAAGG

SEQUENCE_CODE	TEST_TARGET	PBM binding z-score
CAAACTAGGTCAAAGGTCGAAGTCGAGCCAACCA	PPARg DBDmut IVT, anti-PPARg (DBD mutation: PPARg1 K132A/R137A, NR concentration 270 nM)	3.95
ATCCCTAGGTAAAGTTCAGTGAAAGATCGATAGA	PPARg DBDmut IVT, anti-PPARg (DBD mutation: PPARg1 K132A/R137A, NR concentration 270 nM)	0.771
AGAATGAGGTTACCAAAGATCTGGGAAACGCTTG	PPARg DBDmut IVT, anti-PPARg (DBD mutation: PPARg1 K132A/R137A, NR concentration 270 nM)	0.0654
TCTATTAGTTGATTAGGGCAACGGAAACAGCGGA	PPARg DBDmut IVT, anti-PPARg (DBD mutation: PPARg1 K132A/R137A, NR concentration 270 nM)	0.954
TTACCAAGGTGAGAGGTCGTTGATGCACGCCTTG	PPARg DBDmut IVT, anti-PPARg (DBD mutation: PPARg1 K132A/R137A, NR concentration 270 nM)	0.0764
GGAACGAGGGCACAGTTGATAGCATCTGTCGACG	PPARg DBDmut IVT, anti-PPARg (DBD mutation: PPARg1 K132A/R137A, NR concentration 270 nM)	-0.629

For the sequence "ACTAGCAGGCCAAGTCTGGGTCACTCAAACAAAG" , give its reported PBM binding z-score.
-0.38

Look up and state reported PBM binding z-score for "TCTTATAGGTAAAAGGTGAAAGTCGGTGTGGTAA"
1.32

Report PBM binding z-score for "CCATACGGGTCACGAGGTTATAGCACGACGAGCG"
0.373

Read off the recorded PBM binding z-score for "CAAACTACGTCACAGAGGTCAAAGTCCGTGCGTA"
0.372

Complete the entry with PBM binding z-score for "AGTCAAAGTTCATCTAGGTACCGTAAGATATGCT"
1.1

Please report the measured PBM binding z-score for "CCTAGTGGGCCATTCAGAGGTCATTGATCATATG"
0.315

Please give measured PBM binding z-score of the following entry: "CGTCAAATTTCAAGGTAACGTAACAGAAAGCAGC"
0.951

Given "CCTAGTTGGTCAGGAGGACACACACCGGATATGA" , respond with its PBM binding z-score.
0.142

Hello, please tell me recorded PBM binding z-score for this one: "CGTCCAAGGTCAAGGTCATTGAAAGAGACTCGAA"
-0.505

Recall and state the measured PBM binding z-score for "CGAACTAGGTCAGAACAGGACAGTGATGGATGAT" .
2.44

Output measured PBM binding z-score for this item: "ATCGAAAGGACGAAGGTGAGTATACCCACCCGAA"
-0.244

The reported numbers originate from the supplement of paper PMC6555819.
